# measurement protocol: Pharmacokinetics (PK) study in CD1 mice
# Type: in vivo, mouse
# experimental conditions: female, CD1, mouse, plasma, 3 mg/kg IV, read-out: terminal elimination half-life (t1/2) (converted)
assay metric: half-life

Asked: // half-life lookup, key: O=C1CCC(N2C(=O)c3ccc(NS(=O)(=O)c4ccccc4OC(F)(F)F)cc3C2=O)C(=O)N1 (stereo not shown) [Compound 1]
Given back: 3.4 h

====

# system under test: 6×His-CRBN-DDB1 protein (Homo sapiens (Human))
# Sequence (Q96SW2 whole entry): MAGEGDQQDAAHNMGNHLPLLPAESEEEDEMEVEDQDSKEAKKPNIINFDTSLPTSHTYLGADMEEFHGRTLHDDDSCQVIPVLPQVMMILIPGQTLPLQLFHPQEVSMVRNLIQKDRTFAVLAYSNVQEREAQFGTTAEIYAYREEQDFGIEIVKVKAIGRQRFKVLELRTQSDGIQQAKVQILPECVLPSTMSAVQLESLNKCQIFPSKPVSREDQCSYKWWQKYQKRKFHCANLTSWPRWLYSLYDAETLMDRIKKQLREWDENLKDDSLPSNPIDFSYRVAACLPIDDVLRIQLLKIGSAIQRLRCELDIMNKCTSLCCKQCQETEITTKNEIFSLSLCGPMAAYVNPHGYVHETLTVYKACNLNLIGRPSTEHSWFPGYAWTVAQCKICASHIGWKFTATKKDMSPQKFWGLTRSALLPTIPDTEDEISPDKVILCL
# Sequence (Q16531 whole entry partner): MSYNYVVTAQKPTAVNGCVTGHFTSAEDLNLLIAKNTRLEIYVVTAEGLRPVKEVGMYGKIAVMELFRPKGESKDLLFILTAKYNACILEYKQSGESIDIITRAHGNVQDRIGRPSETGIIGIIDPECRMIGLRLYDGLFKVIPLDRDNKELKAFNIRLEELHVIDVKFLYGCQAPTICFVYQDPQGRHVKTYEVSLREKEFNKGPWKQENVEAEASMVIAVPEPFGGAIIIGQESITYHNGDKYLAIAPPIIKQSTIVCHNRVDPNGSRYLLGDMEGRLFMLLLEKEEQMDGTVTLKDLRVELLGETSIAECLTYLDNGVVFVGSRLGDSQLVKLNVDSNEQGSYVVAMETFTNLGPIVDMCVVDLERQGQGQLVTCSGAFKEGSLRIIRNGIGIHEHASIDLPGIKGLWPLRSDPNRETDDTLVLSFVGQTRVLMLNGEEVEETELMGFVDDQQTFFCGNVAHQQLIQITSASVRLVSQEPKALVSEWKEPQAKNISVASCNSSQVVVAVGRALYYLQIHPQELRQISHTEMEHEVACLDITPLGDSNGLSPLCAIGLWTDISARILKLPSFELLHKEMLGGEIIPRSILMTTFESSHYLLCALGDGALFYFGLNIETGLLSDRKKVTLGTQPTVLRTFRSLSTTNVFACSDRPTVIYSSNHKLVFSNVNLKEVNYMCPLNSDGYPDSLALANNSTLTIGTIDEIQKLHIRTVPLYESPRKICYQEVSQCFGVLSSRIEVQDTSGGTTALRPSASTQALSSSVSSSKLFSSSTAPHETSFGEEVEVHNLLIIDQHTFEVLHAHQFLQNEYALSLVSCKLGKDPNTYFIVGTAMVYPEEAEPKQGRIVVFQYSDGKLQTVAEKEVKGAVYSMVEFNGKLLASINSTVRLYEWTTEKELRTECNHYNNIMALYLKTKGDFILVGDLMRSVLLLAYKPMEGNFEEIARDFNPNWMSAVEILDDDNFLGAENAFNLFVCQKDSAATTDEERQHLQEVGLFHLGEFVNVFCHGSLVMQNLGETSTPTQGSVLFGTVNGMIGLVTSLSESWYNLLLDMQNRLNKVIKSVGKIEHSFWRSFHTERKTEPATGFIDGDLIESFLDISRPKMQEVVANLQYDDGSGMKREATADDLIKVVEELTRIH
# measurement protocol: CRBN fluorescence polarization assay
# Format: binding
# experimental conditions: cereblon binding, class symbols; read-out: CRBN FP IC50
pIC50: −log10 of the molar value.
I'd appreciate it if you could supply pIC50 values for the items below.

{"compound": "O=C1CCC(N2Cc3ccc(NS(=O)(=O)c4ccc(F)c(Cl)c4)cc3C2=O)C(=O)N1 (centres unmarked)", "endpoint result": "5.00 to 6.00"}
{"compound": "O=C1CCC(N2C(=O)c3ccc(NS(=O)(=O)c4ccc(Cl)cc4)cc3C2=O)C(=O)N1 (centres unmarked)", "endpoint result": "> 6.00"}
{"compound": "O=C1CCC(N2C(=O)c3ccc(NS(=O)(=O)c4cccnc4)cc3C2=O)C(=O)N1 (centres unmarked)", "endpoint result": "5.00 to 6.00"}
{"compound": "O=C1CCC(N2C(=O)c3ccc(NS(=O)(=O)c4ccc(O)cc4)cc3C2=O)C(=O)N1 (centres unmarked)", "endpoint result": "5.00 to 6.00"}
{"compound": "O=C1CCC(N2Cc3ccc(NS(=O)(=O)c4ccccc4)cc3C2=O)C(=O)N1 (centres unmarked)", "endpoint result": "> 6.00"}

I would be grateful if you could provide pIC50 for each of the following entries.
1. O=C1CCC(N2Cc3cc(NS(=O)(=O)c4cccc(OC(F)(F)F)c4)ccc3C2=O)C(=O)N1 (centres unmarked)
2. CC(=O)Nc1ccc(S(=O)(=O)Nc2ccc3c(c2)C(=O)N(C2CCC(=O)NC2=O)C3=O)cc1 (centres unmarked)
3. O=C1CCC(N2C(=O)c3ccc(NS(=O)(=O)Cc4ccccc4)cc3C2=O)C(=O)N1 (centres unmarked)

Given back:
["> 6.00", "> 6.00", "5.00 to 6.00"]
